Test: chemical genetic growth profiling, strain panel (AID 1159580);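 also: tested at 20 µM; growth read once vehicle control cultures reached saturation at 30 °C; 1 = growth at the plate median or of vehicle wells; lower values mean less growth of the strain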
Settings: S. cerevisiae deletion strains, growth OD, locus YJL092W, strain hpr5, stronger effect = lower value
The whole screen tested about 5,500 compounds, of which about 2,000 (36%) were called active. Another 18% or so got no clear call; they are omitted. The list shows a part of the results.
Provide the reported normalized growth of each item.
Answers are plain numbers.

>  <smiles-str>
COc1cc(OC)c2c(c1)O[C@H](c1ccc(OC)c(OC)c1)[C@@H](O)C2

>  <normalized growth>
0.985

$$$$

# per-item lookup of normalized growth; items listed below
1. CC(C)(N=NC(C)(C)C(=N)N)C(=N)N
2. O=C(O)COc1cc(Cl)c(Cl)cc1Cl
3. COc1cccc([C@]2(O)CCCC[C@H]2CN(C)C)c1
4. COc1ccc2c(c1)OC[C@@H](Cc1ccc(OC)c(OC)c1)[C@H]2O
5. COc1ccc2c(c1)OC[C@@H](Cc1ccc(OC)c(OC)c1)[C@@H]2O

Reply text:
1: 1.03; 2: 0.999; 3: 0.982; 4: 1.01; 5: 0.994

====

Test: chemical genetic growth profiling, strain panel (AID 1159580)
Settings: S. cerevisiae deletion strains, growth OD, locus YGR078C, strain PAC10, stronger effect = lower value
In all, about 5,500 compounds went through this assay and about 2,000 (36%) were called active. Not shown: some 18% with an inconclusive outcome. Some of the results follow.
measure: normalized growth
Numbers only.

# per-item lookup of normalized growth; items listed below
1. COc1ccc(S(=O)(=O)Nc2cc(C)c(C)cc2[N+](=O)[O-])c(OC)c1
2. C[C@@H]1O[C@@H](O[C@H]2[C@@H](Oc3cc(O)c4c(c3)O[C@H](c3ccc(O)cc3)CC4=O)O[C@H](CO)[C@@H](O)[C@@H]2O)[C@H](O)[C@H](O)[C@H]1O
3. O=C1C[C@@H](c2ccccc2)Oc2cc(O)cc(O)c21
4. CCCCOc1cc(C(=O)O)ccc1OC
5. Nc1cc(-c2ccc(Cl)cc2)nc(N)n1
6. CCCCCCCc1c(O)c2ccccc2[nH]c1=O

Reply text:
1: 0.995; 2: 0.987; 3: 0.86; 4: 0.971; 5: 0.999; 6: 1

====

Provide the reported normalized growth of each item.
Experiment: chemical genetic growth profiling, strain panel (AID 1159580)
Conditions: S. cerevisiae deletion strains, growth OD, locus YNL209W, strain ssb2, stronger effect = lower value
Hit rate of the full screen: of about 5,500 compounds, about 2,000 (36%) were called active. Another 18% or so got no clear call; they are omitted. The list shows a part of the results.

>  <compound>
COc1ccc([C@@H]2CC(=O)c3c(O)cc(O)cc3O2)cc1O

>  <normalized growth>
0.986 (inactive)

$$$$
>  <compound>
CC(=O)OCC(CCn1cnc2cnc(N)nc21)COC(C)=O

>  <normalized growth>
0.994 (inactive)

$$$$
>  <compound>
COc1c2c(c(CC=C(C)C)c3oc(=O)c(-c4ccc(O)cc4)c(O)c13)OC(C)(C)C=C2

>  <normalized growth>
0.935 (inactive)

$$$$
>  <compound>
COC(=O)C1=COC(OC2OC(CO)C(O)C(O)C2O)C2C(C)CC(=O)C12O (stereo not given)

>  <normalized growth>
1 (inactive)

$$$$

Lab note: next compound to report on.
Inquiry: // fetch normalized growth given entry COc1ccc(C2CC(=O)c3ccc(OC)cc3O2)cc1 (stereo not given)
Reply text: 0.965 (inactive)

====

Provide the reported normalized growth of each item.
Test: chemical genetic growth profiling, strain panel (AID 1159580)
Settings: S. cerevisiae deletion strains, growth OD, locus YLR384C, strain iki3, stronger effect = lower value
Hit rate of the full screen: of about 5,500 compounds, about 2,000 (36%) were called active. Not shown: some 18% with an inconclusive outcome. The list shows a part of the results.
Answers are plain numbers.

>  <compound>
C[C@@H](N)CO

>  <normalized growth>
1.01

$$$$
>  <compound>
CC(C)=CCc1c(O)cc2oc(C)cc(=O)c2c1O

>  <normalized growth>
0.976

$$$$
>  <compound>
NC(=O)N1c2ccccc2CC(=O)c2ccccc21

>  <normalized growth>
0.983

$$$$
>  <compound>
COc1ccc([C@@H]2CC(=O)c3c(O)cc(O)cc3O2)cc1O

>  <normalized growth>
0.972

$$$$

# per-item lookup of normalized growth; items listed below
1. CCC1(C)CC(=O)NC1=O (stereo not given)
2. CCCCCC(C)N (stereo not given)
3. CCC1(c2ccccc2)C(=O)NCNC1=O
4. Cc1ccc(O)cc1
5. O=c1ccc2ccccc2o1

Reply text:
0.969
1.02
1.01
1.02
0.992

====

Experiment: chemical genetic growth profiling, strain panel (AID 1159580);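 also: tested at 20 µM; growth read once vehicle control cultures reached saturation at 30 °C; 1 = growth at the plate median or of vehicle wells; lower values mean less growth of the strain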
Details: S. cerevisiae deletion strains, growth OD, locus YDR001C, strain nth1, stronger effect = lower value
The whole screen tested about 5,500 compounds, of which about 2,000 (36%) were called active. Roughly 18% stayed inconclusive and do not appear here. The list shows a part of the results.
measure: normalized growth
Answers are plain numbers.

>  <molecule>
N=c1nc(N2CCCCC2)cc(N)n1O

>  <normalized growth>
0.979

$$$$

# per-item lookup of normalized growth; items listed below
1. N#Cc1c(Cl)c(Cl)c(Cl)c(C#N)c1Cl
2. COc1ccc(C(=O)c2ccccc2)c(O)c1
3. COc1ccc(C(=O)c2ccccc2O)c(O)c1
4. O=c1ccc2cc(O)c(O)cc2o1
5. CC(=O)O[C@@](C)(CCC=C(C)C)C1CC=C(C)CC1 (some centres not stated)
6. COc1cc(O)c(C(=O)c2ccccc2)cc1O

Reply text:
1: 0.071; 2: 0.863; 3: 0.888; 4: 0.994; 5: 0.991; 6: 1.02

====

Experiment: chemical genetic growth profiling, strain panel (AID 1159580);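 also: tested at 20 µM; growth read once vehicle control cultures reached saturation at 30 °C; 1 = growth at the plate median or of vehicle wells; lower values mean less growth of the strain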
Settings: S. cerevisiae deletion strains, growth OD, locus YGL173C, strain kem1, stronger effect = lower value
In all, about 5,500 compounds went through this assay and about 2,000 (36%) were called active. Another 18% or so got no clear call; they are omitted. The list shows a part of the results.
measure: normalized growth
One number for each entry.

Worked examples follow.
>  <compound>
N#Cc1c(Cl)c(Cl)c(Cl)c(C#N)c1Cl

>  <result-value>
0.084

$$$$
>  <compound>
C[CH2][Hg][S]c1ccccc1C(=O)O

>  <result-value>
0.0663

$$$$
>  <compound>
CC(C)=CCc1c(O)cc2oc(C)cc(=O)c2c1O

>  <result-value>
0.985

$$$$
>  <compound>
C[N+](C)(C)CC(=O)[O-]

>  <result-value>
1

$$$$

Lab note: next compound to report on.
Inquiry: // fetch normalized growth given entry CO[C@H]1C[C@H](O[C@H]2[C@H](C)[C@@H](OC3O[C@H](C)C[C@H](N(C)C)[C@H]3O)[C@@H](C)C[C@]3(CO3)C(=O)[C@H](C)[C@@H](O)[C@@H](C)[C@@H](C)OC(=O)[C@@H]2C)O[C@@H](C)[C@@H]1O (stereo not given in full)
Reply text: 1

====

Assay: chemical genetic growth profiling, strain panel (AID 1159580);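 also: tested at 20 µM; growth read once vehicle control cultures reached saturation at 30 °C; 1 = growth at the plate median or of vehicle wells; lower values mean less growth of the strain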
Settings: S. cerevisiae deletion strains, growth OD, locus YIR030C, strain dcg1, stronger effect = lower value
Hit rate of the full screen: of about 5,500 compounds, about 2,000 (36%) were called active. Roughly 18% stayed inconclusive and do not appear here. This is one part of the list.
Provide the reported normalized growth of each item.

>  <compound>
CN=C(NC#N)NCCSCc1nc[nH]c1C

>  <result-value>
0.991 (inactive)

$$$$
>  <compound>
COc1ccc2c(c1)OC[C@@H](Cc1ccc(OC)c(OC)c1)[C@H]2O

>  <result-value>
0.955 (inactive)

$$$$
>  <compound>
COc1c(CC=C(C)C)c2c(c3oc(=O)c(-c4ccc(O)cc4)c(O)c13)C=CC(C)(C)O2

>  <result-value>
0.953 (inactive)

$$$$

# per-item lookup of normalized growth; items listed below
1. C=C(C)/C=C1/C=CC(=O)C(C)=C1
2. O=C1C[C@@H](c2ccc(O)cc2)Oc2cc(O)cc(O)c21
3. COc1c(O)cc2oc3cc(O)c(CC=C(C)C)c(O)c3c(=O)c2c1CC=C(C)C
4. Cc1ccc(O)cc1
5. COc1cc2c(cc1OC)C(=O)C(CC1CCN(Cc3ccccc3)CC1)C2 (configuration not stated)
6. COc1c2c(c(CC=C(C)C)c3oc(=O)c(-c4ccc(O)cc4)c(O)c13)OC(C)(C)C=C2

Reply text:
1. 0.42 (active)
2. 1.02 (inactive)
3. 0.867 (active)
4. 1.01 (inactive)
5. 0.985 (inactive)
6. 0.773 (active)

# per-item lookup of normalized growth; items listed below
1. CNC1(C)C2CCC(C2)C1(C)C (configuration not stated)
2. CCc1cccc(C)c1N(C(=O)CCl)C(C)COC (configuration not stated)
3. NC(=O)N1c2ccccc2CC(=O)c2ccccc21
4. OC(CCN1CCCCC1)(c1ccccc1)c1ccccc1
5. COc1cc(OC)c2c(c1)O[C@H](c1ccc(OC)c(OC)c1)[C@@H](O)C2
6. CC(=O)O[C@H]1C(=O)[C@@]2(C)C([C@H](OC(=O)c3ccccc3)[C@]3(O)C[C@H](OC(=O)[C@H](O)[C@@H](NC(=O)c4ccccc4)c4ccccc4)C(C)=C1C3(C)C)[C@]1(OC(C)=O)CO[C@@H]1C[C@@H]2O (some centres not stated)
7. O[C@H]1C=C2CCN3Cc4cc5c(cc4C(C23)[C@@H]1O)OCO5 (some centres not stated)
8. COc1ccc2c(c1)[C@@]1(C)CCC(=O)C[C@H]1CC2

Reply text:
["0.991 (inactive)", "1.02 (inactive)", "0.981 (inactive)", "1.01 (inactive)", "1.01 (inactive)", "1.09 [resistant] (active)", "0.558 (active)", "0.974 (inactive)"]
